Measured values drawn from patent US20230303497A1 for this set.

TARGET OR SYSTEM: UniProt Q9Y5Y9
MEASUREMENT DESCRIPTION: Compound inhibition activity on human NaV1.8 ion channel in HEK293 cells (whole-cell patch clamp)
Type: cell-based
CONDITION: 100 nm concentration; HEK293 cells, resting protocol; read-out: Inhibition ratio of compounds against Nav1.8 (Activity of inhibition)
RECORDED ENDPOINT: inhibition at 0.1 µM

Here's what some known entries look like.
Cc1cc(F)ccc1Oc1cc(C2CC2)c(C(F)(F)F)cc1C(=O)Nc1ccc(F)c(OCC2CCCN2)c1 (centres unmarked) [Example 68] | 20 to 50%
Cc1cc(F)ccc1Oc1cc(C2CC2)c(C(F)(F)F)cc1C(=O)Nc1ccc(F)c(OCC(O)CO)c1 (centres unmarked) [Example 90] | 50 to 80%
Cc1cc(F)ccc1Oc1cc(C2CC2)c(C(F)(F)F)cc1C(=O)Nc1ccc(F)c(OCC(O)CNCC(F)(F)F)c1 (centres unmarked) [Example 87] | 50 to 80%

# lookup: Cc1cc(F)ccc1Oc1cc(C2CC2)c(C(F)(F)F)cc1C(=O)Nc1ccc(F)c(OC2CCC(CN)OC2)c1 (centres unmarked) [Example 85] on UniProt Q9Y5Y9, inhibition at 0.1 µM = 20 to 50%

# lookup: Cc1cc(F)ccc1Oc1cc(C(F)(F)F)c(Cl)cc1C(=O)Nc1cnnc(OC[C@H](O)CO)c1 [Example 116] on UniProt Q9Y5Y9, inhibition at 0.1 µM = 50 to 80%

# lookup: Cc1cc(F)ccc1Oc1cc(C2CC2)c(C(F)(F)F)cc1C(=O)Nc1ccnc(OC[C@@H](O)CO)c1 [Example 105] on UniProt Q9Y5Y9, inhibition at 0.1 µM = 50 to 80%

# lookup: Cc1cc(F)ccc1Oc1cc(C2CC2)c(C(F)(F)F)cc1C(=O)Nc1ccc(F)c(O)c1 [Example 56] on UniProt Q9Y5Y9, inhibition at 0.1 µM = 50 to 80%

# lookup: Cc1cc(F)ccc1Oc1cc(C2CC2)c(C(F)(F)F)cc1C(=O)Nc1ccc(F)c(OCC(O)CNC(C)C)c1 (centres unmarked) [Example 67] on UniProt Q9Y5Y9, inhibition at 0.1 µM = > 80%

# lookup: Cc1cc(F)ccc1Oc1ccc(C(F)(F)F)cc1C(=O)Nc1ccnc(OC[C@H](O)CO)c1 [Example 122] on UniProt Q9Y5Y9, inhibition at 0.1 µM = 50 to 80%

# lookup: Cc1cc(F)ccc1Oc1cc(C2CC2)c(C(F)(F)F)cc1C(=O)Nc1ccc(F)c(OCc2nccs2)c1 [Example 75] on UniProt Q9Y5Y9, inhibition at 0.1 µM = 50 to 80%

# lookup: Cc1cc(F)ccc1Oc1cc(C(F)(F)F)c(Cl)cc1C(=O)Nc1ccnc(OC[C@@H](O)CO)c1 [Example 113] on UniProt Q9Y5Y9, inhibition at 0.1 µM = > 80%

# lookup: Cc1cc(F)ccc1Oc1cc(C2CC2)c(C(F)(F)F)cc1C(=O)Nc1ccc(F)c(OCC(O)CNc2nccs2)c1 (centres unmarked) [Example 98] on UniProt Q9Y5Y9, inhibition at 0.1 µM = > 80%

# lookup: Cc1cc(F)ccc1Oc1cc(C2CC2)c(C(F)(F)F)cc1C(=O)Nc1ccc(F)c(OCC(O)C(F)(F)F)c1 (centres unmarked) [Example 60] on UniProt Q9Y5Y9, inhibition at 0.1 µM = < 20%

* * *

Measured inhibition at 0.1 µM, listed per entry for reference.
TARGET OR SYSTEM: human NaV1.8 ion channel (Homo sapiens (Human))
Sequence (Q9Y5Y9 whole entry): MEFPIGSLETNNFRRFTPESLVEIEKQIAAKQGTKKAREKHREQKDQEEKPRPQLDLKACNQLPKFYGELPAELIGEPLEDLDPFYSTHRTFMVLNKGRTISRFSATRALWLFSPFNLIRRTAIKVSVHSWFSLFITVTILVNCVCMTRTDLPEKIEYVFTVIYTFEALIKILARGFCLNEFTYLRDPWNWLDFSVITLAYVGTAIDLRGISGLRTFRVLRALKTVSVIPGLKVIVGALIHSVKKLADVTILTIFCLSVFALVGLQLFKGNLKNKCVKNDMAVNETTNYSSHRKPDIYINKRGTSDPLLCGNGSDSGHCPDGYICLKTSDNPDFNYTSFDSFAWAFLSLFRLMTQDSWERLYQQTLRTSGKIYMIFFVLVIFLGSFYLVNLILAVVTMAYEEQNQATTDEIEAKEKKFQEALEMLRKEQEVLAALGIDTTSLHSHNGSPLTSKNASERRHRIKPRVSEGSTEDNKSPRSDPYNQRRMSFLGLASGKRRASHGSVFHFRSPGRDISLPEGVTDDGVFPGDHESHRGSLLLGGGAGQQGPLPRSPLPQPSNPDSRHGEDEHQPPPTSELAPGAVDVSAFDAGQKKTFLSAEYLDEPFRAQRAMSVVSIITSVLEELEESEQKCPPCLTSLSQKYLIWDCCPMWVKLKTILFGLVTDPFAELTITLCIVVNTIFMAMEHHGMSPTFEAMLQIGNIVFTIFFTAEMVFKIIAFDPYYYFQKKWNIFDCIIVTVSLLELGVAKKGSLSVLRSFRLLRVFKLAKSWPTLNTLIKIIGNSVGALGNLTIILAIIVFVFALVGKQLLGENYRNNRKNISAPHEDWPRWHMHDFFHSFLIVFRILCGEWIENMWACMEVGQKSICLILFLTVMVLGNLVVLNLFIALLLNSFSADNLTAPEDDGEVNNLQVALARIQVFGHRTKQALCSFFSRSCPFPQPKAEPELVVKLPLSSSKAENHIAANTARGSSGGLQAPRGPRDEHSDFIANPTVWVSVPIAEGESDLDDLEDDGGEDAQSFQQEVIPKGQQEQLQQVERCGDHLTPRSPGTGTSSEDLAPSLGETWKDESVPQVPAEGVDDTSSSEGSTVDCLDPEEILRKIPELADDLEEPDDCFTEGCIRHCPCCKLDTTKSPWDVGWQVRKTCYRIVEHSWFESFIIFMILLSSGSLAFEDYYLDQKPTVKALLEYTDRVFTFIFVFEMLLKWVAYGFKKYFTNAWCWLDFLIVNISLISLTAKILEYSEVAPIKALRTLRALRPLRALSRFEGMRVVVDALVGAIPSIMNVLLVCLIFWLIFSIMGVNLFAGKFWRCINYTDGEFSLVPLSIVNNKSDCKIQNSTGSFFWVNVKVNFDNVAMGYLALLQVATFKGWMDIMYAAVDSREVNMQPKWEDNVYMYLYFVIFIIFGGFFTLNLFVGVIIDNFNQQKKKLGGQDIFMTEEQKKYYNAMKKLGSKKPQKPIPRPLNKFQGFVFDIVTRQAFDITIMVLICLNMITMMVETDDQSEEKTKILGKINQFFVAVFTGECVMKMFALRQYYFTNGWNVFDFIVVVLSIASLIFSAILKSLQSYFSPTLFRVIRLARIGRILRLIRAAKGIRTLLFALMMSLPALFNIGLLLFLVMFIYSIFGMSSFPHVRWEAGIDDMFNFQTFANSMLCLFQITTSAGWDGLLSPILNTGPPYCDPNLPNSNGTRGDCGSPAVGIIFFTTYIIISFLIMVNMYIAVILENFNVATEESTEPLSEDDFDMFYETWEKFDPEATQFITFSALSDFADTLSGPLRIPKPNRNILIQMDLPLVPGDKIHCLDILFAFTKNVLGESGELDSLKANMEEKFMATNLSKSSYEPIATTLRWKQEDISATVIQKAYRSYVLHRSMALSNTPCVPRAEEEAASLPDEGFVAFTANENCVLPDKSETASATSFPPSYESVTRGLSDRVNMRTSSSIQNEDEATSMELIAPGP
MEASUREMENT DESCRIPTION: Compound inhibition activity on human NaV1.8 ion channel in HEK293 cells (whole-cell patch clamp)
Type: cell-based
CONDITION: 100 nm concentration; HEK293 cells, resting protocol; read-out: Inhibition ratio of compounds against Nav1.8 (Activity of inhibition)

Here's what some known entries look like.
Cc1cc(F)ccc1Oc1cc(C(F)(F)F)ccc1C(=O)Nc1ccnc(OC[C@H](O)CO)c1 [Example 108] | 50 to 80%
Cc1cc(F)ccc1Oc1cc(C2CC2)c(C(F)(F)F)cc1C(=O)Nc1ccnc(OC[C@H](O)CO)c1 [Example 104] | > 80%
Cc1cc(F)ccc1Oc1cc(C(F)(F)F)ccc1C(=O)Nc1cnnc(OC[C@H](O)CO)c1 [Example 109] | 20 to 50%
Cc1cc(F)ccc1Oc1cc(C2CC2)c(C(F)(F)F)cc1C(=O)Nc1ccnc(C(F)(F)F)c1 [Example 69] | 20 to 50%
Cc1cc(F)ccc1Oc1cc(C2CC2)c(C(F)(F)F)cc1C(=O)Nc1ccc(F)c(N)c1 [Example 52] | 50 to 80%

Lab note: Cc1cc(F)ccc1Oc1cc(C(F)(F)F)ccc1C(=O)Nc1ccc(F)c(OCC(O)CNC(=O)CO)c1 (stereo not shown) [Example 107] gave inhibition at 0.1 µM of 50 to 80%

Lab note: Cc1cc(F)ccc1Oc1cc(C2CC2)c(C(F)(F)F)cc1C(=O)Nc1cnnc(OC[C@@H](O)CO)c1 [Example 111] gave inhibition at 0.1 µM of 50 to 80%
